system: SK-MEL-28; test: NCI tumour cell line growth inhibition, 48 h
Active and inactive are the calls of the source. Rule as the data show it: active = GI50 up to about 1.1 µM and inactive = higher.
parameter measured: GI50

INSERT INTO measurements (compound, result) VALUES
  ('c1ccc2c(CNCCCN3CCN(CCCNCc4cccc5ccccc45)CC3)cccc2c1', '1.69 µM (inactive)'),
  ('COC(=O)[C@@H]1CN(C(C)=O)C(=O)N1C(=O)OCc1ccccc1', '> 100 µM (inactive)'),
  ('CCOC(=O)C/C(=N\c1cc(C)on1)N(CC)CC.[O-][Cl+3]([O-])([O-])O', '> 100 µM (inactive)'),
  ('CC(=O)NC(CS/N=N/c1[nH]cnc1C(N)=O)C(=O)O (stereo not drawn)', '> 100 µM (inactive)'),
  ('COC1CCC(CO)OO1 (stereo not drawn)', '52 µM (inactive)'),
  ('COCOc1cc(OC)ccc1C/C=N/O', '> 100 µM (inactive)'),
  ('Cn1c(=O)oc2cc(C(O)CN3CCN(Cc4ccc5c(c4)OCO5)CC3)ccc21 (stereo not drawn)', '> 100 µM (inactive)'),
  ('COc1ccc2c(c1)[n+]([O-])c(C(N)=O)c(N)[n+]2[O-]', '> 100 µM (inactive)'),
  ('O=C(/C=C/c1ccccc1)CCN1CCOCC1', '11.4 µM (inactive)'),
  ('CSc1nc2ccccc2c(=O)n1-c1cccc(C)c1', '> 100 µM (inactive)'),
  ('O=C1Sc2ccc(Br)cc2C(=O)Sc2ccccc21', '19.5 µM (inactive)'),
  ('CC1(C)COC(c2cccc(C3=NC(C)(C)CO3)c2)=N1', '> 100 µM (inactive)'),
  ('CC(C)(Oc1ccc(Cl)cc1)C(=O)N(C(=O)N1CCCCC1)c1ccccc1', '15.2 µM (inactive)');
